Ref: PubChem BioAssay

Experiment: RAM pathway blockade in budding yeast – dse1pr::URA3 reporter, 5-FOA selection, pilot screen (AID 869);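 note: 0% = DMSO wells with no growth and 100% = 10 µM 1-NA-PP1 with full growth; RAM network block rescues cells from 5-FOA so hits raise OD615 growth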
Details: S. cerevisiae dse1pr::URA3 5-FOA growth, OD615, 2 d; at 10 µM; stronger effect = higher value; strain carries analog-sensitive mutant Cbk1 kinase
Please provide measured inhibition for the entries that follow.
The reply should contain only the number, in %.

According to the records, this molecule `CCOc1ccc(-c2nc(CSCC(=O)N3CCN(c4cccc(OC)c4)CC3)c(C)o2)cc1` displays inhibition of 1.53

Data point: `COc1ccc(N(CC(=O)NCCSc2ccccn2)S(C)(=O)=O)cc1Cl` ; inhibition = 1.44

Please fill in: inhibition reported for `COC(=O)c1c(NC(=O)C2CC2)sc2c1CCCC2` = 1.37

# molecule `CCOC(=O)c1ccc(NC(=O)c2cc3ccccc3o2)cc1` ; its inhibition = 1

Just so you know, measured inhibition for `Cc1cccc(N2CCN(C(=O)c3cc4c(C)nc5ccccc5c4o3)CC2)c1C` came out at -1.31

The reported inhibition of the molecule CCOC(=O)C1Cn2c(nc3c(c2=O)C2(CCCC2)Cc2ccccc2-3)S1 (centres undefined) was 2.23

For COc1ccc(OC)c(NC(=O)C2COc3ccccc3O2)c1 (centres undefined) the molecule record lists inhibition as 0.25

Reported inhibition ( COc1cc2[nH]c(=O)n(Cc3ccc(C(=O)NCC4CCCO4)cc3)c(=O)c2cc1OC (centres undefined) ) = 3.56

Measured inhibition, `COc1ccc(NC(=O)c2nnn(Cc3ccc(SC)cc3)c2N)c(OC)c1` : 4.42

Input `CC(C)Oc1ccc(NC(=O)Oc2ccccc2)cc1` . Output inhibition: 2.38

Notebook: `C=CCNc1ncnc2c1cnn2-c1ccc(Cl)cc1` , inhibition read as 4.6

// inhibition value for `C=CCn1c(SCc2cc(=O)n3ccsc3n2)nc2scc(C3CC3)c2c1=O` : 2.79

molecule `CCN1CCN(CC(=O)Nc2cccc(C)c2)C(=O)C1=O` , inhibition observed: 1.27

In plain terms, `CN(C)c1ccc(-c2noc(C3CCN(S(=O)(=O)c4cccc(Cl)c4)CC3)n2)cc1` has a documented inhibition of 2.6

Measured inhibition of `CCCOC(=O)c1ccc(NC(=O)CCC(=O)OCC)cc1` : 2.24

Form: molecule = N#CC1=C2SCN(c3ccccc3)CN2C(=O)CC1c1ccccc1Cl (centres undefined) ; inhibition = 2.58

Form: molecule = `Cn1c(-n2c(CCCN3C(=O)c4ccccc4C3=O)nc3ccccc3c2=O)nc2ccccc21` ; inhibition = 2.62

Recorded inhibition (molecule `NC/C(=N\O)c1ccc(Cl)cc1Cl` ): 1.2

Documented inhibition of `Cc1ccc(Cl)cc1N1CCN(C(=O)CCS(=O)(=O)c2cccc3nonc23)CC1` : 0.805

The recorded inhibition for entry `CCOC(=O)c1cc2c(=O)n3ccccc3nc2n(Cc2ccco2)c1=NC(=O)c1cccnc1` equals 1.91

According to the records, this molecule `Brc1ccc(-c2nnc3ccc(N4CCN(c5ccccc5)CC4)nn23)cc1` displays inhibition of 2.52

Please fill in: inhibition reported for CCCCCCC1C(C#N)=C(N)OC2=C1C(=O)CC(C)(C)C2 (centres undefined) = 0.505

Per the records, this molecule ( `C=C(C)Cn1c(SCC(=O)O)nnc1-c1ccc(C(C)(C)C)cc1` ) has inhibition equal to 1

The molecule CCn1c(C(C)NC(=O)c2cccc(C)c2)nc2ccccc21 (centres undefined) showed inhibition equal to 2.54

Entry CCOC(=O)C1=C(N)OC2=C(C(=O)CC(C)(C)C2)C1C1CCCCC1 (centres undefined) ; inhibition = 1.4

Record COc1cc2c(cc1OC)C(C)N(C(=O)c1cc3ccccc3o1)CC2 (centres undefined) , field inhibition: 1.52

In plain terms, `O=c1c2ccccc2nc(N2CCN(c3ccccc3)CC2)n1Cc1ccccc1` has a documented inhibition of 1.27

The measured inhibition associated with `COC(=O)c1ccc(C)c(NC(=O)CN(c2cc(OC)ccc2OC)S(C)(=O)=O)c1` reads 0.035

Sure, the documented inhibition for Cn1c(=O)oc2cc(S(=O)(=O)N3CCC(C(=O)NCC4COc5ccccc5O4)CC3)ccc21 (centres undefined) is 3.92

Reported inhibition of `Cc1c(S(=O)(=O)N2CCc3ccccc3C2)c(=O)n(C)c(=O)n1C` : 2.17

Entry `CSc1nc(NCCOCCO)c2sc3nc(-c4ccco4)c4c(c3c2n1)CCC4` — recorded inhibition = 1.51

Lab book: inhibition of `CCc1ccccc1S(=O)(=O)Cc1ccc(C(=O)N2CCN(c3ccccc3OC)CC2)o1` noted as 1.31

The molecule identified as `C1=C(c2ccccc2)CCN(c2nc3ccccc3n3cnnc23)C1` registered its inhibition at 0.34

inhibition for `CCOC(=O)C1CCN(C(=O)Nc2ccc(Cl)cc2)CC1` is -0.18

The recorded inhibition for entry `Cc1ccc(C)c(C(=O)Nc2c(C(N)=O)oc3ccccc23)c1` equals 0.595

The molecule identified as `COc1ccc(OC)c2c1sc(=NC(=O)c1ccco1)n2C` registered its inhibition at 2.21

The value of inhibition measured for the molecule `CCOC(=O)c1ccc(NC(=O)c2ccc(C)c(S(=O)(=O)N3CCOCC3)c2)cc1` turned out to be 0.87

Memo: `Cc1ccc(-c2nc3cnccn3c2Nc2ccc3c(c2)OCCO3)o1` , reported inhibition: 1.19

// recorded inhibition for `Cc1ccc(-c2nc(C(=O)NC3CCCCCC3)no2)cc1` : -0.1

Notebook: CCOc1ccc(NC(=O)C2CSC(c3ccncc3)=N2)cc1 (centres undefined) , inhibition read as 0.675

Form field inhibition, entry `Clc1ccc(Cc2nnc(-c3cccs3)o2)cc1` : 0.935

Sure, the documented inhibition for `Cc1noc(/C=C/NCc2cccnc2)c1S(=O)(=O)N(C)CC(=O)N1CCc2ccccc21` is 2.5

Value of measured inhibition for the entry Cc1ccc(-c2nn(-c3ccccc3)cc2C2SCC(=O)N2Cc2ccccc2)o1 (centres undefined) : 0.94

inhibition for `Cn1cccc1Cc1nnc(SCC(=O)Nc2ccc3c(c2)OCCO3)n1CCc1ccccc1` is 2.25
